system: A498 renal; assay: NCI tumour cell line growth inhibition, 48 h; in the data active means GI50 below about 0.43 µM; inactive means the rest
Could you please pick one outcome from this set? true (1) = active, false (0) = inactive

Before answering, review these 3 worked examples.
CN(C)c1ccc2c(c1)OC(N)=C(C#N)C2c1ccc2c(c1)CCO2 (stereo not drawn) = true (1)
CCc1ccc(NC(=O)COC(=O)c2cc([N+](=O)[O-])ccc2Sc2nnnn2C)cc1 = false (0)
O=C(COc1ccc(/C=C2\Oc3ccccc3C2=O)cc1)Nc1nc2c(s1)CCCC2 = false (0)

Give the logged outcome of this assay for the following molecule: `O=C(Nc1ccc(Cl)c(Cl)c1)O/N=C\c1c(Cl)ccc([N+](=O)[O-])c1Cl`
false (0)

Identify the outcome logged in this assay for the molecule shown: `CCN(CC)Cc1ccc(Nc2nccc(-c3cnn4ncccc34)n2)cc1`
true (1)

----------
Provide the recorded GI50 for the entries that follow.
tested on: U251 CNS

Some solved cases for reference:
O=C(Nc1ccc(Cl)cc1)Nc1ccc(Nc2nncc3ccccc23)cc1 = 2860 nM
O=C(Nc1cccc(NC(=O)Nc2cc(C(F)(F)F)ccc2Cl)c1)Nc1cc(C(F)(F)F)ccc1Cl = 1930 nM
Cc1ccc(CNc2c3ccccc3nc3cc(NC(=O)CCN4CCCC4)ccc23)cc1 = 688 nM

Let's switch to this compound now.
GET /values?readout=GI50&item= `O=C(COc1ccc(/C=C2\Oc3ccccc3C2=O)cc1)Nc1nc2c(s1)CCCC2`
2290 nM

----------
system: OVCAR-5 ovarian; experiment: NCI tumour cell line growth inhibition, 48 h
Record form. Attribute: TGI. Fill in for each entry.

Value sought for every listed molecule: TGI.
1. COc1c2c(nc3ccccc13)-c1cc3c(c(=O)n1C2)COC(=O)C3(O)CC(=O)N1CCOCC1 (stereo unspecified)
2. CCN(CC)c1ccc2cc(C(=O)Nc3cccc4ccccc34)c(=N)oc2c1
3. CN(C)c1ccc2c(c1)OC(N)=C(C#N)C2c1ccc2c(c1)CCO2 (stereo unspecified)
4. Cc1nc2c(sc(=S)n2-c2ccccc2)c(=O)[nH]1
5. CC(=O)Nc1ccc(OC2=CCN(C)CC2)cc1

63.1 µM
> 100 µM
> 100 µM
> 100 µM
> 100 µM

Please give TGI for each item listed below.
1. CCNC(=O)c1cc(/C=C/c2ccc([N+](=O)[O-])o2)nc2ccccc12
2. C/C(CC(=O)Nc1ccc(Cl)cc1)=N\NC(N)=S
3. O=C(c1cc(Cl)ccc1Cl)N1CCN(C(=O)c2cc(Cl)ccc2Cl)CC1
4. CCCC(=O)NC(Nc1ccc(S(=O)(=O)Nc2nc(C)cc(C)n2)cc1)(C(F)(F)F)C(F)(F)F
5. COc1ccc(C(=O)c2cc3c(N)c(C(=O)Nc4cccc5ccccc45)sc3nc2C)cc1
6. O=C(O)c1nc(-c2ccccc2)[nH]c1C(=O)O
7. Cc1cccc(C(C)C)c1NC(=O)CC1C(=O)Nc2ccccc2S1(=O)=O (stereo unspecified)

1: > 100 µM; 2: > 100 µM; 3: > 100 µM; 4: > 100 µM; 5: > 50 µM; 6: 31.7 µM; 7: > 73.1 µM

Items follow; give TGI for each.
1. O=C(Cn1c(C(=O)/C=C/c2cccs2)nc2ccccc21)c1ccc(Cl)cc1
2. Oc1c([Si](c2ccccc2)(c2ccccc2)c2ccccc2)cc2ccccc2c1-c1c(O)c([Si](c2ccccc2)(c2ccccc2)c2ccccc2)cc2ccccc12
3. O=c1nc2oc3ccc4ccccc4c3cc-2s1

1: > 100 µM; 2: > 100 µM; 3: > 100 µM

All values here come from PubChem BioAssay (NCI).
